Numbers sourced from PubChem BioAssay.

Test: fission yeast growth modulation, primary screen, strain 972, OD600, 24 h, no modulator (AID 1090);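 note: basal condition with compound alone and no growth modifier present; test concentration not given here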
Conditions: S. pombe 972 growth, higher = more signal, called active from +8 up or from −8 down
endpoint.label: z-score
Respond with the number and no other words.

Query: # get_value(readout='z-score', item= O=C(NCCN1CCOCC1)C1N=C(c2ccc(OCCCO)cc2)N(c2ccccc2)O1 (stereo unspecified) )
Reply: -0.251

Query: // query z-score value for entry `CCCC[C@@H]1C[C@H]1[C@@H](NC(=O)c1ccccc1)c1ccc(C(=O)OC)cc1`
Reply: -11.2

Query: What does the data say about its z-score? Entry: CC(C)c1ccc(NN2C(C(O)c3ccc(B(O)O)cc3)C=CC3C(=O)N(c4ccccc4)C(=O)C32)cc1 (stereo unspecified)
Reply: -4.4

Query: For the compound O=C1C2C=CC(C(O)Cc3ccccc3)N(n3cnnc3)C2C(=O)N1Cc1ccccc1 (stereo unspecified) , what z-score is on record?
Reply: 0.116

Query: Suppose we examine the compound CCCc1cc2c(n1Cc1cc(F)cc(F)c1)C(C)C1CN(C(=O)c3ccccc3)C(C)(C(=O)OC)C21 (stereo unspecified) ; what z-score value has been reported?
Reply: 0.744

Query: Dear colleague, I am looking for the recorded z-score of the following compound: `C=CCOC(=O)[C@H]1[C@@H]2C(=O)O[C@@H](c3ccccc3)[C@@H](c3ccccc3)N2[C@@H](c2ccc(OCCOC(=O)[C@H]3C[C@H]4C(=O)N[C@@H](CCCCNC(C)=O)C(=O)N4[C@H]3c3ccc(O)cc3)cc2)[C@]12C(=O)Nc1ccc(I)cc12`
Reply: -2.33

Query: Using the record for C=CC1(C(=O)OC)CC=C(C(=O)OC)CC1 (stereo unspecified) , report its z-score.
Reply: 0.358

Query: Return reported z-score; argument: `COCCCNC(=O)[C@@]1(C)c2ccccc2C(=O)N(C(C)C)[C@H]1c1ccc(CO)cc1`
Reply: -0.162

Query: I'd like to know its z-score. The compound in question is `C=CCOC(=O)[C@H]1[C@@H]2C(=O)O[C@@H](c3ccccc3)[C@@H](c3ccccc3)N2[C@@H](c2ccc(OCCOC(=O)[C@H]3C[C@H]4C(=O)N[C@@H](CCCC[N+](C)(C)C)C(=O)N4[C@H]3c3ccc(O)cc3)cc2)[C@]12C(=O)Nc1ccc(I)cc12`
Reply: -0.503

Query: May I ask what z-score has been recorded for `COC(=O)[C@@]1(Cc2ccc(OC)cc2)[C@H]2c3cc(C(=O)N(C)C)n(C)c3C[C@H]2CN1C(=O)c1ccccc1` ?
Reply: -0.756

Query: Query (compound): `NCCCCCNC(=O)[C@@H]1C[C@@H]2C(=O)N[C@@H](Cc3ccccc3)C(=O)N2[C@@H]1c1ccc(O)cc1` ; field requested: z-score
Reply: -0.448

----------
Experiment: binders of probe aFSTL3 on microarray, primary screen, stem cell growth factor project, biochemical, small-molecule microarray, fluorescence 635/667 (AID 1064);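 note: measures binding of the biotinylated anti-FSTL3 antibody to printed compounds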
Settings: higher = more signal
endpoint.label: composite z-score
I only need the number, thanks.

Query: Which composite z-score is reported for this molecule? `CCOC(=O)C[C@H]1[C@H](OC(=O)c2ccc(C(=O)c3ccccc3)cc2)[C@@H](NC(=O)c2ccc3ccccc3n2)c2cc(OCCCO)ccc2N1C(=O)c1ccccc1`
Reply: -0.384

Query: Look up composite z-score for this molecule: `C[N+](C)(C)CCCCNC(=O)[C@H]1C[C@H]2C(=O)N3CCC[C@H]3C(=O)N2[C@H]1c1cccc(OCCO)c1`
Reply: 0.397

Query: Which composite z-score value is on record for `O=C1O[C@@H](c2ccccc2)[C@@H](c2ccccc2)N2[C@@H](c3ccccc3OCCO)[C@]3(C(=O)Nc4ccccc43)[C@@H](C(=O)Nc3nc4ccccc4s3)[C@H]12` ?
Reply: 0.0741

Query: Reported composite z-score for `C=C(CC1([C@@H](NP(=O)(c2ccccc2)c2ccccc2)[C@H]2C[C@@H]2CCCC)CC1)c1ccccc1` : what is it?
Reply: 0.591

Query: Returns the measured composite z-score for the input molecule. Input: COc1cc2c(cc1O)C(C1CC1)N(Cc1sc3ccccc3c1Cl)CC2 (stereo not given)
Reply: 0.0766

Query: Could you share which composite z-score value was measured for `COCCOC(=O)N1C(=O)[C@@]2(c3cc(C#Cc4ccc(OC)cc4)ccc31)[C@H](c1ccc(O)cc1)N1[C@H](c3ccccc3)[C@H](c3ccccc3)OC(=O)[C@H]1[C@@H]2C(=O)N1CCc2cc(OC)c(OC)cc2C1` ?
Reply: 0.0419

Query: Bench note: what composite z-score did `CCOC(=O)[C@H]1C/C=C/C[C@H](C(=O)OCC)C(=O)O[C@H]2[C@@H](OC)O[C@H](CO)[C@@H](OC(=O)c3c(OC)cccc3OC)[C@@H]2OC1=O` show?
Reply: 1.03

Query: Sample `CCCC[C@@H]1C[C@H]1[C@@H](NC(=O)c1ccco1)c1ccccc1C(F)(F)F` — what was its composite z-score?
Reply: 2.82

Query: Recorded composite z-score of `CC#CC(=O)Oc1ccccc1C=CC(=O)OCC` , please.
Reply: -0.156

Query: Field request: composite z-score | item: `CCCC#C[Si](O[C@H](CC)c1cn(Cc2cccc(Cl)c2)nn1)(C(C)C)C(C)C`
Reply: -0.468

Query: Recorded composite z-score for `O=C1c2ccccc2[C@](Cc2ccccc2I)(C(=O)NCCN2CCOCC2)[C@H](c2ccc(CO)cc2)N1Cc1ccccc1Cl` , please?
Reply: 0.118

Query: Given `COCCOC(=O)N1C(=O)[C@@]2(c3cc(C#Cc4ccc(OC)cc4)ccc31)[C@H](c1ccc(OCCO)cc1)N1[C@H](c3ccccc3)[C@H](c3ccccc3)OC(=O)[C@H]1[C@@H]2C(=O)N1CCN(c2ncccn2)CC1` , state its recorded composite z-score.
Reply: -0.144

Query: Would you kindly share the measured composite z-score for `C=CCOC(=O)[C@H]1[C@@H]2C(=O)O[C@@H](c3ccccc3)[C@@H](c3ccccc3)N2[C@@H](c2ccc(OCCOC(=O)[C@H]3C[C@H]4C(=O)N[C@@H](CCCCN(C)C)C(=O)N4[C@H]3c3ccc(O)cc3)cc2)[C@]12C(=O)Nc1ccc(I)cc12` ?
Reply: -0.38

Query: Consider the molecule shown here: O=C1NC(=O)C2C1C=CC(C(O)c1cccs1)N2Nc1ccc(Cl)cc1Cl (stereo not given) What is its recorded composite z-score?
Reply: 0.709

Query: Which composite z-score is reported for this molecule? O=C(NCCN1CCOCC1)C1N=C(c2ccc(OCCCO)cc2)N(c2ccccc2)O1 (stereo not given)
Reply: 0.377
